target: UniProtKB Q16816; test: radiometric filter-binding kinase assay; conditions: compound 0.01 µM
Sequence (Q16816 whole entry, looked up): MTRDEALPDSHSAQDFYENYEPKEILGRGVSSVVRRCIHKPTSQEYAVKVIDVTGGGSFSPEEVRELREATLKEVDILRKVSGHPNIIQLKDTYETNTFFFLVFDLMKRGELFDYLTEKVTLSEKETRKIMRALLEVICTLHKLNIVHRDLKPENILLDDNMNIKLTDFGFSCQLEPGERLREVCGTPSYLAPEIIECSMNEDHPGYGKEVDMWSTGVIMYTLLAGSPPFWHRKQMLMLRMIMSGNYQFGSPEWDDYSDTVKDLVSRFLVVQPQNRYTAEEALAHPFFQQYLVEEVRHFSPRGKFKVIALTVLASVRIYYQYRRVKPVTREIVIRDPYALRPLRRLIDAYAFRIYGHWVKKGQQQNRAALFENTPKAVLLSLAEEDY
measured.parameter: residual activity (%)

> print(dat)
                                   molecule  target.or.test.system  meas.value
1  COc1cc(O)c2c(c1)[C@H]1OC1C[C@H](O)[C@H](O)C(=O)/C=C\C[C@H](C)OC2=O (stereo not given in full)       UniProtKB Q16816         100

(I) CNc1nc(-c2ccc3c(N)n[nH]c3c2)cc(N2C[C@@H](C(=O)NC3CCCCC3)CC[C@H]2C)n1
(II) C/C(=C1/C(=O)Nc2ccc(NC(N)=O)cc21)c1ccc[nH]1
Query :: Which numeric residual activity is bigger, that of I or that of II ? Mark your answer with the label of the selected entry.
Result :: I
